system: MS2 coat protein; test: apparent KD of MS2 coat protein; designed switch direction (-1 OFF switch, 1 ON switch): -1; higher = weaker reporter binding; conditions: input ligand: FMN 200 uM
measurementKind: apparent KD of MS2 coat protein (nM)
Answers are plain numbers, in nM.

Here are 4 sequences together with their reported answers.
[
  {
    "sequenceContent": "GACUUCUGAGGAUAUACAUAGAUUUACAUGAGGAUCACCCAUGUUCCUCUAUGUAUAAAUGUAGAAGGCAGAAGAU [Mat - Exclusion 5 - JL Mod - D66] (Eterna round: R97, puzzle: Exclusion 5)",
    "apparent KD of MS2 coat protein [nM]": 73.8
  },
  {
    "sequenceContent": "ACACAGCGAGGAUAUACAUGAGGAUCACCCAUGUGGCGGCCGUUACGGUAGCGCUAGUGUAGAAGGCGCAUUGG [EX3 #36] (Eterna round: R97, puzzle: Exclusion 3)",
    "apparent KD of MS2 coat protein [nM]": 65.8
  },
  {
    "sequenceContent": "AAAACAAACGAAGGAUAUGCGCGAAAAUGACUAGCAGAAGGUCGACACGGGCGGAUCCGACAUGAGGAUCACCCAUGUAAAACU [Tied] (Eterna round: R96, puzzle: Exclusion NG 1)",
    "apparent KD of MS2 coat protein [nM]": 1200
  },
  {
    "sequenceContent": "UGAACAUGAGGAUCACCCAUGUGGUUAGGUGAAAUCCUGCUGGAGGAUAUAAGUCCUGGUGCCGCUUAGAAGGCCAGCUGACAG [Eternabot solution 48] (Eterna round: R96, puzzle: Exclusion NG 3)",
    "apparent KD of MS2 coat protein [nM]": 72
  }
]

Any idea what its apparent KD of MS2 coat protein is? The sequence is CCAGCGAGUGUGAGGAUAUGCUGGUCCUUGGAUCAGCAGAAGGCACAUGAGGAUCACCCAUGUGAGGACGUUGG [JL bmx4 3.31] (Eterna round: R96, puzzle: Brourd's mod of Exclusion 4)
294

----------
system: K4 kissing-loop RNA reporter; experiment: apparent KD of K4 kissing-loop reporter; higher = weaker reporter binding; settings: Eterna round: R107; input ligand: none;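 note: bound reporter read as fluorescence of individual clusters on recovered sequencing chips by microscopy, with normalized cluster intensities fitted with a binding model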
Please go through the items and note down their apparent KD of K4 kissing-loop reporter.
Express the reported value numerically, then name its unit.

Consider the reported apparent KD of K4 kissing-loop reporter for these sequences:
[
  {
    "sequenceContent": "AGCGAUGUUUUCUCUAGGAGUGAUGUUUUUCGAGGACCGGUACGGCCGCCACUCGGACGACGAGUGUGGUAGUGGGCUGUUGACU [ffmullin]",
    "apparent KD of K4 kissing-loop reporter": "441 nM"
  },
  {
    "sequenceContent": "GGGCGCGGCGCGGCCGCCACUGGGCCUGGGCGCGCGCCGAGUGAUGUUCGCCUGCGGCUGGGUCGUAGGACCGGGUGCCGGCUGG [BDazzled 1]",
    "apparent KD of K4 kissing-loop reporter": "311 nM"
  }
]

Using the record for UGUACCGAGUCAGGAUAUCGCGUCGAAAGACGAAACGAGUGAUGUUCGAAUCGAUCGAAAGAUCGUCGAGAAGGGACUUGGUACU [FmnBS 22 #SwitchBubble #StaticStem #DoubleMagnetSystem] , report its apparent KD of K4 kissing-loop reporter.
642 nM

----------
What apparent KD of MS2 coat protein was measured for each of the following?
system: MS2 coat protein; assay: apparent KD of MS2 coat protein; designed switch direction (-1 OFF switch, 1 ON switch): -1; higher = weaker reporter binding; conditions: input ligand: none
Numbers only, in nM.

Recorded results for 2 sequences are shown here.
[
  {
    "sequenceContent": "GAGAACUGAGGAUAUACAUGAGGAUCACCCAUGUUAAGAAGAUAGUAUUGAUGGUUCUGUAGAAGGCAGAGAGA [JR_Ex3_Sub066] (Eterna round: R97, puzzle: Exclusion 3)",
    "apparent KD of MS2 coat protein / nM": 30.8
  },
  {
    "sequenceContent": "GCCGUCAGUGUGAGGAUAUGCCUAUGGAUACGUAGGCAGAAGGCACAUGAGGAUCACCCAUGUCCUAAGACGGC [JL-BMX4-4.33 Eli mod] (Eterna round: R97, puzzle: Brourd's mod of Exclusion 4)",
    "apparent KD of MS2 coat protein / nM": 190
  }
]

Below are some sequences; for each one, tell me its apparent KD of MS2 coat protein.
1. GCACGGAGUGUAGGAUAUCUGUGCGAUUAGCUCAGAGAAGGACAUGAGGAUCACCCAUGUGUGUUCCAAUAAUAAAAUCCGUGC [Eli exng1 - 063] (Eterna round: R96, puzzle: Exclusion NG 1)
2. UCCCGUGAAGGAUAUGGUUACAGGCACAUGAGGAUCACCCAUGUCACCUCGAAUACCUGAUCAGAAGGUUACUCGA [Eternabot (Original) Solution 40] (Eterna round: R97, puzzle: Exclusion 5)
3. CCCUCACAUGAGGAUCACCCAUGUCAGGAUAUAGUGCGAUUGUCGAUAUGAAAUUGCAUUAGAAGGGAUUAGGC [Eternabot (L1) Solution 67] (Eterna round: R97, puzzle: Exclusion 1)

[329, 19.9, 17.5]
